target_system: HLA-B*51:01
assay_info: IEDB peptide-MHC binding, purified MHC/competitive/fluorescence; filed as Kd, often an IC50 or EC50 that approximates it; bounds were set here for any values at or beyond the usual limits of such assays
condition_set: source organism: Rickettsia bellii RML369-C
reported_metric: Kd

Kd recorded for this sequence, AKIALAVYK , is ≥ 20 µM

###

target_system: HLA-B*58:01
assay_info: IEDB peptide-MHC binding, purified MHC/competitive/fluorescence; bounds were set here for any values at or beyond the usual limits of such assays
condition_set: source organism: Homo sapiens
pIC50: −log10 of the molar value.
reported_metric: pIC50

pIC50 reading for SYMMDDLELI : ≤ 4.70

Values compiled from the Immune Epitope Database (IEDB).
